tested system: CFTR channel (Homo sapiens, UniProt P13569)
Construct: results in the phosphorylation and opening of CFTR anion channels
Sequence (P13569 whole entry): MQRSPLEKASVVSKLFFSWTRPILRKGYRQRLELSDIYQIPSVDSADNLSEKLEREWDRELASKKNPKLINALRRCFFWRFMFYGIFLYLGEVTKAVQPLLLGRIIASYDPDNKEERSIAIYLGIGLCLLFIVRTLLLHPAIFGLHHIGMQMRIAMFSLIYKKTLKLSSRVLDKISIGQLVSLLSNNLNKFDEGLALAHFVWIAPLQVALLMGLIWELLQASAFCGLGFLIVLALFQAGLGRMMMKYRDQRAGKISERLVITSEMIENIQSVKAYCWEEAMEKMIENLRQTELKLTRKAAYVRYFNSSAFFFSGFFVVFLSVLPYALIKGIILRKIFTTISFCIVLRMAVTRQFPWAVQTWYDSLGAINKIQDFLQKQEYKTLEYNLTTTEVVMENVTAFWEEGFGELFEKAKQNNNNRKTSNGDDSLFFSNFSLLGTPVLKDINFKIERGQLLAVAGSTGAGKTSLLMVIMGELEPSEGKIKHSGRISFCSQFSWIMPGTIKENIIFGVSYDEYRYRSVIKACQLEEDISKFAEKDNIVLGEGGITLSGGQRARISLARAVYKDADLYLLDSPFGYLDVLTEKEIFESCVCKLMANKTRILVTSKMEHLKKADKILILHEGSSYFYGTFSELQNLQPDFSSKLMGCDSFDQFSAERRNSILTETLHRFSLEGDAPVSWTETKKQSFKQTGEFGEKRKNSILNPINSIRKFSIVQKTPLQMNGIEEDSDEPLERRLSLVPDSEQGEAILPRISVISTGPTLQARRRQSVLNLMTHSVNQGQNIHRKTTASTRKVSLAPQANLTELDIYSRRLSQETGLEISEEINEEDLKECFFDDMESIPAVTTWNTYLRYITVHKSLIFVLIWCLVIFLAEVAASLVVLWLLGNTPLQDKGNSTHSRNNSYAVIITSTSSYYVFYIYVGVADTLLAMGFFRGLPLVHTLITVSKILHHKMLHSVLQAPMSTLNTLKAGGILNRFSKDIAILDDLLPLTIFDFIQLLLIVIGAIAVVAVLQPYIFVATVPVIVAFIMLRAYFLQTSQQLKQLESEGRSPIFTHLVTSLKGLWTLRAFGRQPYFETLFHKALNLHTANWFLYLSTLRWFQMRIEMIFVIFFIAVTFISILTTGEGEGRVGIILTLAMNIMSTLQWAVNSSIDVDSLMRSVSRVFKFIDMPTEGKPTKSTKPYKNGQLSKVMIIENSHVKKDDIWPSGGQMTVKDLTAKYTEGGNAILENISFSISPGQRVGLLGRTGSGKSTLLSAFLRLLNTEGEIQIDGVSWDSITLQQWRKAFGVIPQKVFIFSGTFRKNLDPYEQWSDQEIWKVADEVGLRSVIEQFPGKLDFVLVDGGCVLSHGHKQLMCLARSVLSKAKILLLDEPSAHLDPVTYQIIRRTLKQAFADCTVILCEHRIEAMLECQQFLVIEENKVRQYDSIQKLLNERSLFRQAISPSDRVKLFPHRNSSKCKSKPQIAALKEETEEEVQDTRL
assay remarks: T84 assay (FLIPR membrane potential, forskolin/IBMX-stimulated CFTR channel activity)
test parameters: Human colonic T84 cells; 10 μM forskolin + 100 μM IBMX; average of at least 2 runs unless marked n = 1
# strict inequality: IC50 < 10 µM yields 1, everything else yields 0

| compound structure string | category label |
| --- | --- |
| Oc1c(Cl)cc(-c2noc(C(O)(c3ccccc3)c3ccccc3)n2)cc1Cl | 1 |
| Oc1c(Cl)cc(-c2noc(C(O)(c3ccc(Cl)cc3)c3ccc(Cl)cc3)n2)cc1Cl | 0 |
| Oc1c(Br)cc(-c2noc(C(O)(Cc3ccccc3)Cc3ccccc3)n2)cc1Br | 1 |
| Oc1c(Br)cc(-c2noc(C(O)(c3cccc(F)c3)c3cccc(F)c3)n2)cc1Br | 1 |
| Oc1c(Br)cc(-c2noc(C(O)(c3ccc(Cl)cc3)c3ccc(Cl)cc3)n2)cc1Br | 1 |
| CC(C)(C)c1ccc(C(O)(c2ccc(C(C)(C)C)cc2)c2nc(-c3cc(Br)c(O)c(Br)c3)no2)cc1 | 0 |
| Oc1c(Br)cc(-c2noc(C(O)(c3cccc(Cl)c3)c3cccc(Cl)c3)n2)cc1Br | 0 |
| Oc1c(Br)cc(-c2noc(C(O)(c3ccc4ccccc4c3)c3ccc4ccccc4c3)n2)cc1Br | 0 |
| COc1cccc(C(O)(c2cccc(OC)c2)c2nc(-c3cc(Br)c(O)c(Br)c3)no2)c1 | 1 |
| Oc1c(Br)cc(-c2noc(C(O)(c3ccccc3)c3ccccc3)n2)cc1Br | 1 |
| CC#CC(O)(C#CC)c1nc(-c2cc(Br)c(O)c(Br)c2)no1 | 0 |
| COc1cccc(C(O)(c2cccc(OC)c2)c2nc(-c3cc(Cl)c(O)c(Cl)c3)no2)c1 | 1 |
